measuredTarget: HAT1/Rbap46 (Homo sapiens) (UniProt Q16576+O14929)
Sequence (O14929 2-419 partner limits assumed): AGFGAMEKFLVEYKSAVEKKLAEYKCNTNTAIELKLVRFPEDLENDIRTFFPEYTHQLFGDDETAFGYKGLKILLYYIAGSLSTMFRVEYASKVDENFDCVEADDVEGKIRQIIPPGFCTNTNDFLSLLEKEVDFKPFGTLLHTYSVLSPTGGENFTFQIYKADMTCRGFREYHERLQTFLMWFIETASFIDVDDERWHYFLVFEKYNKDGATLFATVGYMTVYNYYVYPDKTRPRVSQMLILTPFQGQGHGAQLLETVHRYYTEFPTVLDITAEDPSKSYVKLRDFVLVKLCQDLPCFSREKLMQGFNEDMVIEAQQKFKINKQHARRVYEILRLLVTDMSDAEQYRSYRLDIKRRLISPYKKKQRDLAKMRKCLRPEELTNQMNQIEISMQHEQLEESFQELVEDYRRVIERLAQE
Sequence (Q16576 2-425 limits assumed): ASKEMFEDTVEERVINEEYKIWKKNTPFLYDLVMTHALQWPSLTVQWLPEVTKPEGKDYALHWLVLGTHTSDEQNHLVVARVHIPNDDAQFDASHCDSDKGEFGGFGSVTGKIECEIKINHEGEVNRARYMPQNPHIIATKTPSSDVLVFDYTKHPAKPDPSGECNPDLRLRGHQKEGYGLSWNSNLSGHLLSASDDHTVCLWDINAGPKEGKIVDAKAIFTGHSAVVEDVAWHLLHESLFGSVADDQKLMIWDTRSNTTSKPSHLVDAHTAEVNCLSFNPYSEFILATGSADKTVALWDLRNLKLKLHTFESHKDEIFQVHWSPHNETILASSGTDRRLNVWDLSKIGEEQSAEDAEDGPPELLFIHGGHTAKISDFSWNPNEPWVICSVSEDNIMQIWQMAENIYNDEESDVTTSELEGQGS
testMethodNotes: Inhibition of C-terminal FLAG tagged full length human HAT1/Rbap46 transfected in HEK293F cells using histone H4 peptide as substrate and 4-pentynoyl-CoA as cofactor at 100 uM preincubated for 10 mins followed by 4-pentynoyl-CoA addition and measured after 1 hr by amplex red dye based fluorescence analysis relative to control
Type: cell-based
conditionDescription: time 70.0 min
Catalogue of compounds with associated inhibition
# unit: % | format: bare number

Solved cases below.
itemSmiles: CCc1cc2c(cc1Cl)nc1c(=O)[nH]c(=O)nc-1n2CCOC(C)=O
inhibition [%]: 49
--
itemSmiles: Cc1cc2nc3[nH]c(=O)[nH]c(=O)c3nc2cc1C
inhibition [%]: 7
--
itemSmiles: CCc1cc2nc3c(=O)[nH]c(=O)nc-3n(C[C@H](O)[C@H](O)[C@H](O)CO)c2cc1Cl
inhibition [%]: 61
--
itemSmiles: CCc1cc2c(cc1Cl)nc1c(=O)[nH]c(=O)nc-1n2CCOCC(C)(C)C
inhibition [%]: 40
--
itemSmiles: CCc1cc2c(cc1Cl)nc1c(=O)[nH]c(=O)nc-1n2CCOc1ccc(F)cc1
inhibition [%]: 1
--
itemSmiles: CCc1cc2c(cc1Cl)nc1c(=O)[nH]c(=O)nc-1n2CCOc1cc(F)cc(F)c1
inhibition [%]: -1

Quick one: inhibition of `CCc1cc2c(cc1Cl)nc1c(=O)[nH]c(=O)nc-1n2CCOCC1CCCC1` ? 47

For the compound shown here, `CCc1cc2c(cc1Cl)nc1c(=O)[nH]c(=O)nc-1n2CCCc1ccc(Br)cc1` , give the reported inhibition. 9

Record request: inhibition value, item `CCc1cc2c(cc1Cl)nc1c(=O)[nH]c(=O)nc-1n2CCOc1ccc(Br)cc1` 8

Given `CCc1cc2c(cc1Cl)nc1c(=O)[nH]c(=O)nc-1n2CCCOc1ccc(-c2ccccc2)cc1` , state its recorded inhibition. 8

The reported numbers originate from ChEMBL document CHEMBL5380855.
